Data provenance is ChEMBL document CHEMBL1127078.

study.system: DNA gyrase (Escherichia coli) (UniProt P0AES6+P0AES4)
experimental.protocol: Dose required to inhibit DNA gyrase in Escherichia coli
Format: protein-complex assay
Cut-off 0.2 µg/mL on ID50: below means Yes, at or above means No.

- CN1CCN(c2cc3c(cc2F)c(=O)c(C(=O)O)cn3C2CC2F)CC1 (stereo in doubt; 27): No
- CN1CCN(c2cc3c(cc2F)c(=O)c(C(=O)O)cn3[C@@H]2C[C@@H]2F)CC1 (stereo in doubt; 39): No
- CN1CCN(c2cc3c(cc2F)c(=O)c(C(=O)O)cn3C2CC2F)CC1 (stereo in doubt; 26): No
- O=C(O)c1cn(C2CC2)c2cc(N3CCNCC3)c(F)cc2c1=O [CIPROFLOXACIN]: Yes
- CN1CCN(c2cc3c(cc2F)c(=O)c(C(=O)O)cn3[C@@H]2C[C@@H]2F)CC1 (stereo in doubt; 38): Yes
